Consider the following binders; for each one, report its IC50 (read off the curve).
- Experimental Target: his-labeled human IL-13 (immunogen A) (human) (UniProt P35225)
- Assay Notes: FACS blocking assay: antibody titrated with biotin-labeled immunogen A (30 ng/mL); blocked partner IL-13Ra1/IL-4Ra on HEK293 clone 4C1; Alexa 488 streptavidin
Give bare numbers, in nM.

Observe how each entry below is paired with its result.
29D9H8 (lead antibody, mouse hybridoma) (antibody, V domains shown, Mouse monoclonal antibody purified from hybridoma supernatant on Protein G) VH: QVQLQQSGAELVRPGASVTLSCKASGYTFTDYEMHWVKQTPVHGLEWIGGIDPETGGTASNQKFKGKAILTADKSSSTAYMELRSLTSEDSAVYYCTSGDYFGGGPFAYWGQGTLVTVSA VL: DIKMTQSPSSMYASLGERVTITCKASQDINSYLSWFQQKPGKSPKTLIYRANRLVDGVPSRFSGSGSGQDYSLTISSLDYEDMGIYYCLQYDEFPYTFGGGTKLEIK: 0.3
35E2C3 (lead antibody, mouse hybridoma) (antibody, V domains shown, Mouse monoclonal antibody purified from hybridoma supernatant on Protein G) VH: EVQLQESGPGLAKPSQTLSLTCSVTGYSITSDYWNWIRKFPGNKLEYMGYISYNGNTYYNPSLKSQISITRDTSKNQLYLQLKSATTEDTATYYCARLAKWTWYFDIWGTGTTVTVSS VL: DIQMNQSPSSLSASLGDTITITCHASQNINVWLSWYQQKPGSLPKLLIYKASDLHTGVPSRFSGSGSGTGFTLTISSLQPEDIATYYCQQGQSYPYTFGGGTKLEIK: 0.4
c29D9H8 (mouse-human chimeric IL-13 antibody) (antibody, V domains shown) VH: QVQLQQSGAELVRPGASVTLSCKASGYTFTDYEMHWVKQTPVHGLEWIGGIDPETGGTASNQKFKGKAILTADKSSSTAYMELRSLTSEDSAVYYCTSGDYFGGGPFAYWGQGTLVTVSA VL: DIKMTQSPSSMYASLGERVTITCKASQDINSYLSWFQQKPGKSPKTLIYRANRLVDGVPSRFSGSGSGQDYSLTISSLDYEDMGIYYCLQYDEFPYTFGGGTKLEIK: 0.5

Then there is this binder:
**Q:** Check the records and state IC50 (read off the curve) for c35E2C3 (mouse-human chimeric IL-13 antibody) (antibody, V domains shown) VH: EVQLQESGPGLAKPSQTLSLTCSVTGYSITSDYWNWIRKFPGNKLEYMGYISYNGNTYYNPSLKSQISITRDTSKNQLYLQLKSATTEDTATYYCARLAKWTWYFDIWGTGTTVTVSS VL: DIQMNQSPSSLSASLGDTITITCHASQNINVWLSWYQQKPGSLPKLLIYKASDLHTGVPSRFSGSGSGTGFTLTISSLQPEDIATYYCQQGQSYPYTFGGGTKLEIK
**A:** 0.5
